Assay: In vivo bioavailability study, plasma CoQ10 after oral administration to rats
Conditions: male, SD, rat, 15 mg/kg, Tmax, rats, oral, n = 5, plasma CoQ10
Observation type: Tmax

-- ask Provide measured Tmax value, entry: COC1=C(OC)C(=O)C(C/C=C(\C)CC/C=C(\C)CC/C=C(\C)CC/C=C(\C)CC/C=C(\C)CC/C=C(\C)CC/C=C(\C)CC/C=C(\C)CC/C=C(\C)CCC=C(C)C)=C(C)C1=O
-- reply ~1 h

Numbers sourced from paper PMC12145421.
